- ASSAY_OVERVIEW: Dissociation constant, pKa of compound in NaOH
- Assay type: physicochemical
- TEST_SETTINGS: NaOH solution
MEASUREMENT_KIND: pKa

> print(dat)
                         structure.notation  measurement.kind  observed
1                              Cc1nc(N)sc1C               pKa      6.28
2                               Cc1csc(N)n1               pKa      5.77
3                      CCCNC(=O)/N=C(\N)NCC               pKa      8.31
4  C[C@@H](NC(=O)/N=C(\N)NCCCc1ccccc1)c1ccccc1               pKa      7.96

---

pKi: −log10 of the molar value.
Assay read-out pKi; system under study: Histamine H4 receptor (Homo sapiens).
MEASUREMENT_KIND: pKi

# annotated cases, reported pKi shown
> print(dat)
                                    compound  measurement.kind  observed
 1  Cc1nc(N)sc1CCCN/C(N)=N/C(=O)NC[C@H](C)c1ccccc1               pKi      4.92
 2     Cc1nc(N)sc1CCCN/C(N)=N/C(=O)Nc1ccccc1               pKi      4.65
 3   Cc1nc(N)sc1CCCN/C(N)=N/C(=O)NCCc1ccccc1               pKi      4.83
 4  CCCCCCNC(=O)/N=C(\N)Nc1cccc(-c2csc(N)n2)c1               pKi      5.02
 5  N/C(=N\C(=O)NC1CCCCC1)Nc1cccc(-c2csc(N)n2)c1               pKi      4.87
 6  Cc1nc(N)sc1CCCN/C(N)=N/C(=O)NC(C)c1ccc(OC(F)(F)F)cc1 (stereo not drawn)               pKi      5.09
 7  Cc1nc(N)sc1CCCN/C(N)=N/C(=O)NC(c1ccccc1)c1ccccc1               pKi      5.20
 8  Cc1nc(N)sc1CCCN/C(N)=N/C(=O)NC(C)c1cccc(F)c1 (stereo not drawn)               pKi      4.88
 9  N/C(=N\C(=O)NCCc1ccccc1)Nc1cccc(-c2csc(N)n2)c1               pKi      4.52
10  Cc1nc(N)sc1CCCN/C(N)=N/C(=S)N[C@@H](C)c1ccccc1               pKi      4.26

1. CCC(CNC(=O)/N=C(\N)NCCCc1sc(N)nc1C)c1ccccc1 (stereo not drawn)
2. N/C(=N\C(=O)NCc1ccccc1)NC1CCc2nc(N)sc2C1 (stereo not drawn)
IN: Between the entries labelled 1 and 2 , which has a larger pKi value on record? Refer to your chosen item by its label in the answer.
OUT: 1

---

- SUBJECT_OF_TEST: Histamine H2 receptor (Homo sapiens)
- Sequence (P25021 whole entry): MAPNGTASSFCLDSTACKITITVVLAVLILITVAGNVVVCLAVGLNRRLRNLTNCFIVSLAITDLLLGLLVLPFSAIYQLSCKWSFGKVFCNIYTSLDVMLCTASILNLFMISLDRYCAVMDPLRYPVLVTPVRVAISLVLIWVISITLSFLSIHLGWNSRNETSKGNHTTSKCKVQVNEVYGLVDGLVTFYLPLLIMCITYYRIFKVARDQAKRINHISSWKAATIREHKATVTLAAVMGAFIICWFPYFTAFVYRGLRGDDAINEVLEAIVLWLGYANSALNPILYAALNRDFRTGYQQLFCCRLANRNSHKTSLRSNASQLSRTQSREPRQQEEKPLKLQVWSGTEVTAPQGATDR
- ASSAY_OVERVIEW: Agonist activity at human histamine receptor expressed in sf9 insect cell membranes co-exprssing GsalphaS incubated for 90 mins [35S]GTPgammaS binding based microbeta scintillation counting analysis
- Type: functional, Membrane
pEC50: −log10 of the molar value.
MEASUREMENT_KIND: pEC50

# annotated cases, reported pEC50 shown
> print(dat)
                                   compound  measurement.kind  observed
1  Cc1nc(N)sc1CCCN/C(N)=N/C(=O)NCC(C)CCc1ccccc1 (stereo unspecified)             pEC50      7.53
2       CCCCCCNC(=O)/N=C(\N)NCCCc1sc(N)nc1C             pEC50      7.41
3     Cc1nc(N)sc1CCCN/C(N)=N/C(=O)NC1CCCCC1             pEC50      6.83
4  Cc1nc(N)sc1CCCN/C(N)=N/C(=O)NCC(C)C1CCCCC1 (stereo unspecified)             pEC50      7.66
5  Cc1nc(N)sc1CCCN/C(N)=N/C(=O)NCC(C)c1ccc(C(C)C)cc1 (stereo unspecified)             pEC50      7.46
6   Cc1nc(N)sc1CCCN/C(N)=N/C(=O)NCCc1ccccc1             pEC50      7.35

1. Cc1nc(N)sc1CCCN/C(N)=N/C(=O)NCC(C)CC1CCCCC1 (stereo unspecified)
2. CCCNC(=O)/N=C(\N)NCCCc1sc(N)nc1C
IN: // returns 1 or 2 , whichever has the lower pEC50 Refer to your chosen item by its label in the answer.
OUT: 2

---

- SUBJECT_OF_TEST: UniProtKB P47747
- Sequence (P47747 whole entry): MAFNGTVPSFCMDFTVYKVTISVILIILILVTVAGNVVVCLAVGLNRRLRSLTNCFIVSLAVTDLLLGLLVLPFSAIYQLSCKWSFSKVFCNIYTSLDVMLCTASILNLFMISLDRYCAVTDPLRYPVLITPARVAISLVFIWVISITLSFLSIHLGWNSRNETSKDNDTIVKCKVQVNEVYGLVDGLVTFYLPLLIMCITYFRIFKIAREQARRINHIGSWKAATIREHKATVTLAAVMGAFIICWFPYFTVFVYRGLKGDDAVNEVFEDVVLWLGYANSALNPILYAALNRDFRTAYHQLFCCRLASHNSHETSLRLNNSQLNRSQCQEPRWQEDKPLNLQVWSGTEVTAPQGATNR
- ASSAY_OVERVIEW: Agonist activity at guinea pig right atrium histamine H2 receptor assessed as increase in heart rate incubated for 30 mins in presence of cimetidine
MEASUREMENT_KIND: EC50 (nM)
Give the value, in units of nM, as a plain number.

# annotated cases, reported EC50 shown
> print(dat)
                                    compound  observed
 1  Cc1nc(N)sc1CCCN/C(N)=N/C(=S)NC[C@H](C)c1ccccc1       490
 2  Cc1nc(N)sc1CCCN/C(N)=N/C(=O)NC(c1ccccc1)C(F)(F)F (stereo unspecified)      47.9
 3  Cc1nc(N)sc1CCCN/C(N)=N/C(=O)NC[C@H](C)c1ccccc1      25.7
 4       CCCCCCNC(=O)/N=C(\N)NCCCc1sc(N)nc1C      15.8
 5  Cc1nc(N)sc1CCCN/C(N)=N/C(=S)NC[C@@H](C)c1ccccc1       148
 6  Cc1nc(N)sc1CCCN/C(N)=N/C(=O)NCC(c1ccccc1)c1ccccc1       174
 7  Cc1nc(N)sc1CCCN/C(N)=N/C(=O)NC(C)c1ccc(Cl)cc1 (stereo unspecified)      24.5
 8  Cc1nc(N)sc1CCCN/C(N)=N/C(=O)NC(C)c1ccc(Br)cc1 (stereo unspecified)        55
 9  Cc1nc(N)sc1CCCN/C(N)=N/C(=O)NC(C)c1ccco1 (stereo unspecified)      9.77
10  Cc1nc(N)sc1CCCN/C(N)=N/C(=S)NC(c1ccccc1)c1ccccc1      66.1

Switching to the query record.
IN: Given the compound Cc1nc(N)sc1CCCN/C(N)=N/C(=O)NC(C)c1cccs1 (stereo unspecified) , what is its reported EC50?
OUT: 10

---

- SUBJECT_OF_TEST: D(3) dopamine receptor (Homo sapiens)
- Sequence (P35462 whole entry): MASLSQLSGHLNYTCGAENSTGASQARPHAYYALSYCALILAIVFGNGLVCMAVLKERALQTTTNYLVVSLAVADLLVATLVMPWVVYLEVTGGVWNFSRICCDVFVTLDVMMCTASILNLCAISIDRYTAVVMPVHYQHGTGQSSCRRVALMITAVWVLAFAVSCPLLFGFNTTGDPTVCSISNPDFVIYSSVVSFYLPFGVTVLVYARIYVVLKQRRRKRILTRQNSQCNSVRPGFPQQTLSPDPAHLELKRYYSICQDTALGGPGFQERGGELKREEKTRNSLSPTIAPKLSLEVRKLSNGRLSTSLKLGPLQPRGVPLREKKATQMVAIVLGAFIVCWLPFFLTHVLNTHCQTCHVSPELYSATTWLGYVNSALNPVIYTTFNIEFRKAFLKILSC
MEASUREMENT_KIND: Ki (nM)

> print(dat)
                                   compound  measurement.kind  observed
1  CCC(CNC(=O)/N=C(\N)NCCCc1sc(N)nc1C)c1ccccc1 (configuration not stated)                Ki      64.6
2  N/C(=N\C(=O)NCc1ccccc1)NC1CCc2nc(N)sc2C1 (configuration not stated)                Ki      5010
3  Cc1nc(N)sc1CCCN/C(N)=N/C(=O)NCC(C)C1CCCCC1 (configuration not stated)                Ki      43.7
4  Cc1nc(N)sc1CCCN/C(N)=N/C(=O)N[C@H](C)c1ccccc1                Ki      6.17
5  Cc1nc(N)sc1CCCN/C(N)=N/C(=O)NC(C)c1ccco1 (configuration not stated)                Ki      17.4

P. Cc1nc(N)sc1CCCN/C(N)=N/C(=O)NC(C)c1cccc(F)c1 (configuration not stated)
Q. Cc1nc(N)sc1CCCN/C(N)=N/C(=O)N[C@@H](C)c1ccccc1
IN: Between the entries labelled P and Q , which has a larger Ki value on record? Refer to your chosen item by its label in the answer.
OUT: Q

---

- SUBJECT_OF_TEST: Histamine H2 receptor (Homo sapiens)
- TEST_SETTINGS: Sf9, Membrane, filed as agonist, time 90.0 min
MEASUREMENT_KIND: pKb

> print(dat)
                         structure.notation  observed
1  N/C(=N\C(=O)NC1CCCCC1)Nc1cccc(-c2csc(N)n2)c1       5.4
2  N/C(=N\C(=O)Nc1ccccc1)Nc1cccc(-c2csc(N)n2)c1      4.76
3   CCCNC(=O)/N=C(\N)Nc1cccc(-c2csc(N)n2)c1      4.91
4  CCCCCCNC(=O)/N=C(\N)Nc1cccc(-c2csc(N)n2)c1      6.14

---

- SUBJECT_OF_TEST: Histamine H2 receptor (Homo sapiens)
- ASSAY_OVERVIEW: Agonist activity at human histamine H2 receptor expressed in HEK293T cells co-expressing ELucC by beta arrestin2 recruitment assay
- Assay type: functional, cell-based
pEC50: −log10 of the molar value.
MEASUREMENT_KIND: pEC50

# annotated cases, reported pEC50 shown
> print(dat)
                                   compound                       subject.of.test  measurement.kind  observed
1  Cc1ccc(CC(C)CNC(=O)/N=C(\N)NCCCc2sc(N)nc2C)cc1 (stereo unspecified)  Histamine H2 receptor (Homo sapiens)             pEC50      6.88
2  Cc1nc(N)sc1CCCN/C(N)=N/C(=O)NC(C)c1cccc(F)c1 (stereo unspecified)  Histamine H2 receptor (Homo sapiens)             pEC50      7.19
3    Cc1nc(N)sc1CCCN/C(N)=N/C(=O)NCc1ccccc1  Histamine H2 receptor (Homo sapiens)             pEC50      7.00
4  Cc1nc(N)sc1CCCN/C(N)=N/C(=S)N[C@H](C)c1ccccc1  Histamine H2 receptor (Homo sapiens)             pEC50      6.43
5  Cc1nc(N)sc1CCCN/C(N)=N/C(=O)NCC(C)CC1CCCCC1 (stereo unspecified)  Histamine H2 receptor (Homo sapiens)             pEC50      6.52

1. CCCCCCNC(=O)/N=C(\N)NCCCc1sc(N)nc1C
2. CCC(CNC(=O)/N=C(\N)NCCCc1sc(N)nc1C)c1ccccc1 (stereo unspecified)
3. Cc1nc(N)sc1CCCN/C(N)=N/C(=O)NCC(C)CCCc1ccccc1 (stereo unspecified)
4. Cc1nc(N)sc1CCCN/C(N)=N/C(=O)N[C@H](C)c1ccccc1
IN: Arrange these 4 compounds in increasing order of pEC50. Sort the labels as requested; that list is your answer.
OUT: 3, 2, 1, 4
